Numbers sourced from the kinase profiling compilation of Christmann-Franck et al. (2016).

In this section, each of the compounds is paired with its reported kinase still bound, per cent of control.
# subject_of_test: MAP3K10 (human)
# assay_info: KINOMEscan competition binding
# recorded_conditions: compound 10.0 µM
recorded_endpoint: kinase still bound, per cent of control (%)

mol=O=c1[nH]c2ccccc2n1C1CCN(Cc2ccc(-c3nc4cc5[nH]cnc5cc4nc3-c3ccccc3)cc2)CC1 recorded_number=84
mol=CCc1nc(-c2cccc(C)c2)c(-c2ccnc(NC(=O)c3ccccc3)c2)s1 recorded_number=100
mol=COc1cc2ncnc(Nc3cccc(Cl)c3)c2cc1OC recorded_number=100
mol=Cc1cn(-c2cc(C(=O)Nc3ccc(C)c(NC(=O)c4ccno4)c3)cc(C(F)(F)F)c2)cn1 recorded_number=100
mol=CCOc1cc(N2CCC(O)CC2)ccc1Nc1ncc2c(n1)N(C)c1ccccc1C(=O)N2C recorded_number=100
mol=COc1cc(N2CCC(C(N)=O)CC2)ccc1Nc1nc(N)c(Cl)c(Nc2ccccc2S(=O)(=O)C(C)C)n1 recorded_number=100
mol=CC(=O)c1c(C)c2cnc(Nc3ccc(N4CCNCC4)cn3)nc2n(C2CCCC2)c1=O recorded_number=93
mol=COc1cc2c(Nc3ccc(NC(=O)c4ccccc4)cc3)ncnc2cc1OCCCN1CCOCC1 recorded_number=86
mol=C=CC(=O)Nc1ccc(C(=O)c2sc(Nc3ccc(N4CCN(C)CC4)cc3OC)nc2N)cc1 recorded_number=91
mol=CCN1CCN(Cc2ccc(NC(=O)c3ccc(C)c(/C=C/c4cnc5[nH]ccc5c4OC)c3)cc2C(F)(F)F)CC1 recorded_number=20
